- MEASURED_ON: Aryl hydrocarbon receptor (Homo sapiens) (UniProt P35869)
- Sequence (P35869 whole entry, looked up): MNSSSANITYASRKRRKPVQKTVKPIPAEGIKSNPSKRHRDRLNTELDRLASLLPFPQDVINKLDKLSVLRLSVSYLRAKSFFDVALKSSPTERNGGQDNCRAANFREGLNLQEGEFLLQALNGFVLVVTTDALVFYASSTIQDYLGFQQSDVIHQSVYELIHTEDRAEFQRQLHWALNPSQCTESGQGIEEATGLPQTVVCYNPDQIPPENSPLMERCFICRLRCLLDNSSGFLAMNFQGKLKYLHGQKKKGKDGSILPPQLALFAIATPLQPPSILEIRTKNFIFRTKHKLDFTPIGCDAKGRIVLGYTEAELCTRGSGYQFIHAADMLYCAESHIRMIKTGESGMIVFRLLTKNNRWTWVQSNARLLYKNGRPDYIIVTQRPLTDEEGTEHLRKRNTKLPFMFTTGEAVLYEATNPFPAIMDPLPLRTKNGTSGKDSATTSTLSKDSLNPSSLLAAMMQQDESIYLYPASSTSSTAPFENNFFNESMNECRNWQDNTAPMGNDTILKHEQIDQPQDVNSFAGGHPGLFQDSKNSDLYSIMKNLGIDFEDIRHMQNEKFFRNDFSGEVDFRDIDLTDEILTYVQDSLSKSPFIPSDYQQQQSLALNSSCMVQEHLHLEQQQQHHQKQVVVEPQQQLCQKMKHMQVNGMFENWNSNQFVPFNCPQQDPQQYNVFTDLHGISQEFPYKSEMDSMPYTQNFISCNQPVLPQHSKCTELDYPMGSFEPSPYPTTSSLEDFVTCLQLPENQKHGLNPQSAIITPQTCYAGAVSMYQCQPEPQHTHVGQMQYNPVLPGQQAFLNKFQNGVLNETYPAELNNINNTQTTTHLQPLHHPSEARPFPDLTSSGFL
- PROCEDURE_TEXT: qHTS assay to identify small molecule that activate the aryl hydrocarbon receptor (AhR) signaling pathway (AID 743085); also: nearly all actives have a fitted effect of over 15% in size;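 as to activation: HG2L7.5c1 human HepG2 liver cells with stably integrated DRE-driven firefly reporter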
- CONDITION_DETAILS: HepG2 AhR-luc (HG2L7.5c1), luciferase, 24 h; series mostly up to 70.3 µM
- Source text: U.S. Tox21 Program National Center for Advancing Translational Sciences [NCATS] NIH Chemical Genomics Center [NCGC] U.S. Environmental Protection Agency [EPA] National Institutes of Environmental Health Sciences [NIEHS] National Toxicology Program [NTP] U.S. Food and Drug Administration [FDA] Tox21 Assay overview: The Aryl hydrocarbon Receptor (AhR), a member of the family of basic helix-loop-helix transcription factors, is crucial to adaptive responses to environmental changes. […]
Inconclusive results are not listed. Active and inactive are the calls of the source. Calls follow the shape of the dose curve; as a rule, active = well fitted activation curve with a large enough effect in the repeat runs; inconclusive = weak or mixed curves; inactive = no such curve, though single readings can be large or run the other way.
Response enum: active, inactive

Sample answers from the record:
- MOLECULE: "c1coc(Cn2cccc2)c1"
  QUALITATIVE_LABEL: "inactive"
- MOLECULE: "CCCCN=C(N)N=C(N)N"
  QUALITATIVE_LABEL: "inactive"
- MOLECULE: "C=CCOC(=O)CCCCCCCC"
  QUALITATIVE_LABEL: "inactive"

Please indicate how the test categorized "C[C@H]1COc2c(C3(N)CC3)c(F)cc3c(=O)c(C(=O)O)cn1c23" .
inactive

State the result this test recorded for "C=COCCCCO" .
inactive

Please let me know the test result on file for "CNC(C)=O" .
inactive

Each molecule tested received a call. Report the one for "CN(C)c1cc(NC(=O)CNC(C)(C)C)c(O)c2c1C[C@H]1C[C@H]3[C@H](N(C)C)C(=O)C(C(N)=O)=C(O)[C@@]3(O)C(=O)C1=C2O" .
inactive

What did this assay record as the result for "COC(=O)/C=C(\C)CCC=C(C)C" ?
inactive

Entry "CCN(CC)CC" : call = ?
inactive

Each molecule tested received a call. Report the one for CN1C(CCl)Nc2cc(Cl)c(S(N)(=O)=O)cc2S1(=O)=O (stereo not given) .
inactive

Please let me know the test result on file for "CCN1CCN(C(=O)N[C@@H](C(=O)N[C@@H]2C(=O)N3[C@@H]2SC(C)(C)[C@H]3C(=O)O)c2ccccc2)C(=O)C1=O" .
inactive

So what was the verdict on CC(=O)OC1CCC(C(C)(C)C)CC1 (stereo not given) in this test?
inactive

How was CCCCCCCCCCCCCCCC/C=C/C1CC(=O)OC1=O (stereo not given) classified in this test?
inactive

Hi, sorry to bother you, what did the test record for "CCOCCOCCOC(C)=O" ?
inactive

// outcome(item) with item = "CC(C)(C)C(=O)CC(=O)C(C)(C)C"
inactive

Entry CC(CN1CC(=O)NC(=O)C1)N1CC(=O)NC(=O)C1 (stereo not given) : call = ?
inactive

GET /call?item= "COCc1nnc(-c2ccc[n+]([O-])c2)n1-c1c(Cl)c(Cl)cc2[nH]c(=O)c(=O)[nH]c12" returns the recorded outcome of this test.
inactive

Given "CC(=O)c1ccc2ccc3ccccc3c2c1" , state the outcome it received in this test.
active

What outcome does the record of this test show for "O=C(O)P(=O)(O)O" ?
inactive

Identify the outcome logged in this assay for the molecule shown: "CCCOc1ccc(C(=O)OCCN(CC)CC)cc1N"
active

Could you check what this test reported for "Nc1ccc(C(=O)NCC(=O)O)cc1" ?
inactive
